Target: Alpha-1,2-mannosidase, putative (BT_3130) (Bacteroides thetaiotaomicron, UniProt Q8A325)
Sequence (Q8A325 whole entry, change not shown): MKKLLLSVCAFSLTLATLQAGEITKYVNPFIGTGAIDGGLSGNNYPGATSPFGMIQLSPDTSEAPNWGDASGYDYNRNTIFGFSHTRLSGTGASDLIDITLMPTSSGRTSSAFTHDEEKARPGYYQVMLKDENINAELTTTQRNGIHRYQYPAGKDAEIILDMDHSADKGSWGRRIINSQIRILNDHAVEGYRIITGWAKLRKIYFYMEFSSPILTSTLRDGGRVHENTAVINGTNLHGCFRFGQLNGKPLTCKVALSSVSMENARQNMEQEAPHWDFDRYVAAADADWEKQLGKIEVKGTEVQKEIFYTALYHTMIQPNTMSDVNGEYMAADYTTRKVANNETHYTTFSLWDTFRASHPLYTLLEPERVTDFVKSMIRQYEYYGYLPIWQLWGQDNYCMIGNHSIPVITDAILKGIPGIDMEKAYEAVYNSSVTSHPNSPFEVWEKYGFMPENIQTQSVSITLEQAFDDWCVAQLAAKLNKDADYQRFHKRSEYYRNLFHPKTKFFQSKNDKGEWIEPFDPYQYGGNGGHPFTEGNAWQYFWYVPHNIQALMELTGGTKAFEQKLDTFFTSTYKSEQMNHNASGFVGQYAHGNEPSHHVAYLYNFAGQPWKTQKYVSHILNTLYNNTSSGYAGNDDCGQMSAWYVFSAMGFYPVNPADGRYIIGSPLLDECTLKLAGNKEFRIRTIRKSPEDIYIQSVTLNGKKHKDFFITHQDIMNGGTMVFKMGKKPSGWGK
Quantity: Ki (µM)
Write the answer as a number in µM, unit excluded.

Which Ki value belongs to OC[C@@H]1[C@@H](O)[C@H](O)[C@H](O)c2nccn21 ? 1

* * *

Target: UniProt:Q8A0N1
Sequence (whole entry): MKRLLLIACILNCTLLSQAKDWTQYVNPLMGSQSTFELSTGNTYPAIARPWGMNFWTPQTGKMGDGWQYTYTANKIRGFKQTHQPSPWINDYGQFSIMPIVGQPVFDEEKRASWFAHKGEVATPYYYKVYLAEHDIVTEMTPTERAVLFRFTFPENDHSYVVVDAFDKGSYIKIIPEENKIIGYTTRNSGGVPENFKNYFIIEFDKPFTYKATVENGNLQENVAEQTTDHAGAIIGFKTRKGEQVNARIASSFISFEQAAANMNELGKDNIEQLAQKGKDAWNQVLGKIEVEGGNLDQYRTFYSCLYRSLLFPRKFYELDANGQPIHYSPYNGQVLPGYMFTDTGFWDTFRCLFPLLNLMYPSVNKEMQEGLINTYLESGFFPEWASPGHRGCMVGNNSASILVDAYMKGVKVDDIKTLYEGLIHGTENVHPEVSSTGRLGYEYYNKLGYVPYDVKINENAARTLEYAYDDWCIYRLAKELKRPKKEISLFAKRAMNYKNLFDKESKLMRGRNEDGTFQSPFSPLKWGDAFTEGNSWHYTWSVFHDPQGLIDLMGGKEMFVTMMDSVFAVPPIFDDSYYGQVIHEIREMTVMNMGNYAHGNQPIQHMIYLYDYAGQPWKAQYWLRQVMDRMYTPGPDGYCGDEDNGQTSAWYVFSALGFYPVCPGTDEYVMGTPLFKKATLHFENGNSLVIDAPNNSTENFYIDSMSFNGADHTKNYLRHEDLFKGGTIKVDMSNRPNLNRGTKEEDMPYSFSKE
Assay Method Text: Activity of Bacteroides thetaiotaomicron GH92 alpha-mannosidase GH92 alpha-mannosidase 3990 assessed as mannose release at 1 mM after 16 hrs by HPLC relative to untreated control after 16 hrs by HPLC
Type: protein assay
Reported Activity by item:

Which Activity value belongs to OC[C@H]1O[C@H](O[C@H]2[C@H](O)[C@H](O)[C@@H](O)O[C@@H]2CO)[C@@H](O)[C@@H](O)[C@@H]1O ? 0.022%

Which Activity value belongs to OC[C@H]1O[C@H](O[C@H]2[C@@H](O)[C@H](O)[C@@H](CO)O[C@@H]2O)[C@@H](O)[C@@H](O)[C@@H]1O ? 100%

Which Activity value belongs to OC[C@H]1O[C@H](O[C@@H]2[C@H](O)[C@@H](O)O[C@H](CO)[C@H]2O)[C@@H](O)[C@@H](O)[C@@H]1O ? 0.036%

* * *

Target: Alpha-1,2-mannosidase family protein (BT_1032) (Bacteroides thetaiotaomicron, UniProt Q8A8Y5)
Sequence (Q8A8Y5 whole entry, change not shown): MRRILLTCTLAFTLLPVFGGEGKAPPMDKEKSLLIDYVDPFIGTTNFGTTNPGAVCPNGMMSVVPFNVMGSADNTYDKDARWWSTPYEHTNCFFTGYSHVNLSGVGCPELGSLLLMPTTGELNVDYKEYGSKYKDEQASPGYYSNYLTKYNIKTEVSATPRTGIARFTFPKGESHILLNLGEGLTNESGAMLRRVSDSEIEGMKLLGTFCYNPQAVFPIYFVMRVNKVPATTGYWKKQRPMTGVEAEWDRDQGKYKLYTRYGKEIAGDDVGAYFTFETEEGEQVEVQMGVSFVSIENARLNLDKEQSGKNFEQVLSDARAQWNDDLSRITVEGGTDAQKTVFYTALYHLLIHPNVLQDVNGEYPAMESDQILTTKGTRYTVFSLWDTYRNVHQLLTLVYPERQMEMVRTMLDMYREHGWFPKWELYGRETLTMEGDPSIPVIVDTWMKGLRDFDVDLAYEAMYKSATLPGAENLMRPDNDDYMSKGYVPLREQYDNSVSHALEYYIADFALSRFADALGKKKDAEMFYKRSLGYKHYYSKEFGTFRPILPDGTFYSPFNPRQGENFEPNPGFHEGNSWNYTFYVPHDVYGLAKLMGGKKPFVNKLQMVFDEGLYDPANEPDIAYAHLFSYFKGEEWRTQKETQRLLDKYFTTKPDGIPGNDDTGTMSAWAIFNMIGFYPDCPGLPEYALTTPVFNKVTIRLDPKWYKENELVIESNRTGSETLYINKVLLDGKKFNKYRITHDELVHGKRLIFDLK
Quantity: pKi
By convention, pKi is the negative base-10 log of a molar concentration.

Which pKi value belongs to OC[C@@H]1[C@@H](O)[C@H](O)[C@H](O)c2nccn21 ? 3.22

* * *

Target: Alpha-1,2-mannosidase, putative (BT_4073) (Bacteroides thetaiotaomicron) (UniProt Q8A0E8)
Sequence (Q8A0E8 as listed by the source, change not shown): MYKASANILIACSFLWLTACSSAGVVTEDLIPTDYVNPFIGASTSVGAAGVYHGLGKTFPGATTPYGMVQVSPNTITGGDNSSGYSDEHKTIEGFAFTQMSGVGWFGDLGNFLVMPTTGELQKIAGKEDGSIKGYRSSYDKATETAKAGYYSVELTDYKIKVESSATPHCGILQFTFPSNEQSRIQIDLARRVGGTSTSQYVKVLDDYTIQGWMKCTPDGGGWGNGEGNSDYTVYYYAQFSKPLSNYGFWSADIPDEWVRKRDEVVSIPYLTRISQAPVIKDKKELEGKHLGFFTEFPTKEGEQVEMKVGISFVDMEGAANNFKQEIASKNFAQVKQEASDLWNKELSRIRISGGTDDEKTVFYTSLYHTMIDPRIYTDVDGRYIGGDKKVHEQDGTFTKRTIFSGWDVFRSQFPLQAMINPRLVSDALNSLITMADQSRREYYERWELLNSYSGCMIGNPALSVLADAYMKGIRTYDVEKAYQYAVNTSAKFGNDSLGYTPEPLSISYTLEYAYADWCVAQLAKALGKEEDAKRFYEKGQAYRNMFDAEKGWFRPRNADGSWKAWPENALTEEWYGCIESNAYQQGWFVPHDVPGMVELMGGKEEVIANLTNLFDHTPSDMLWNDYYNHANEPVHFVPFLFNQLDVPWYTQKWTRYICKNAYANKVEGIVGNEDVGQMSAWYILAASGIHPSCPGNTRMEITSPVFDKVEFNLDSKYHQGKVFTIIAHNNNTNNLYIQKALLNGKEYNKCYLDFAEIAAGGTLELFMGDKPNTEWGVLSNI
Assay Method Text: Activity of Bacteroides thetaiotaomicron GH92 alpha-mannosidase GH92 alpha-mannosidase 4073 assessed as mannose release at 1 mM after 16 hrs by HPLC relative to untreated control after 16 hrs by HPLC
Format: protein assay
Activity calls are given as the source filed them. The rule behind the calls is not given here.

{"Smiles String": "OC[C@H]1O[C@H](O[C@H]2[C@H](O)[C@H](O)[C@@H](O)O[C@@H]2CO)[C@@H](O)[C@@H](O)[C@@H]1O", "Activity": "100%"}
{"Smiles String": "OC[C@H]1O[C@H](OC[C@H]2O[C@H](O)[C@@H](O)[C@@H](O)[C@@H]2O)[C@@H](O)[C@@H](O)[C@@H]1O", "Activity": "inactive"}
{"Smiles String": "OC[C@H]1O[C@H](O[C@@H]2[C@H](O)[C@@H](O)O[C@H](CO)[C@H]2O)[C@@H](O)[C@@H](O)[C@@H]1O", "Activity": "inactive"}
{"Smiles String": "OC[C@H]1O[C@H](O[C@H]2[C@@H](O)[C@H](O)[C@@H](CO)O[C@@H]2O)[C@@H](O)[C@@H](O)[C@@H]1O", "Activity": "inactive"}

* * *

Target: UniProt:Q8A0C9
Sequence (Q8A0C9 whole entry): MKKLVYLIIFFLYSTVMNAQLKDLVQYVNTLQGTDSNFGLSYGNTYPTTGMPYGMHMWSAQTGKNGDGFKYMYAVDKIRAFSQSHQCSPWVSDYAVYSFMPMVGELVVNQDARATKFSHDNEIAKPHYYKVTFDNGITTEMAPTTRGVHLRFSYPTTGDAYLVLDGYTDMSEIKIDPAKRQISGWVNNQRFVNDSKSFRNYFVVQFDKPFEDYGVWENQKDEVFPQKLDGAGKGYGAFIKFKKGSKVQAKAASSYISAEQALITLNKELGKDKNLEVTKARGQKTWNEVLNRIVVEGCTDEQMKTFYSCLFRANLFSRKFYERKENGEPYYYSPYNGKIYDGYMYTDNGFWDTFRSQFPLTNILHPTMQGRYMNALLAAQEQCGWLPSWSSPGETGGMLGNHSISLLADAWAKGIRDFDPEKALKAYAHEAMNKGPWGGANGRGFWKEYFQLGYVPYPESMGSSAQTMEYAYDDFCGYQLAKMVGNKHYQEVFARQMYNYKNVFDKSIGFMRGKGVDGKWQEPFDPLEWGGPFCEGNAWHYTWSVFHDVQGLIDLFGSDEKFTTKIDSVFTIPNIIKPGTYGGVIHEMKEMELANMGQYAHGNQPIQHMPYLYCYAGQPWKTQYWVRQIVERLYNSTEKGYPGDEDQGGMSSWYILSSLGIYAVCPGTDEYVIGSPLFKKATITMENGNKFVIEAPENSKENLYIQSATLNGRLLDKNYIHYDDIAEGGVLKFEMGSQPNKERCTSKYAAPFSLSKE
Quantity: Ki (µM)
Write the answer as a number in µM, unit excluded.

What value of Ki on UniProt:Q8A0C9 does OC[C@@H]1[C@@H](O)[C@H](O)[C@H](O)c2nccn21 [MANNOIMIDAZOLE] have? 1600
